tested.on: T1, human calcium-sensing receptor (CaSR) (human, UniProt P41180 20-1078)
T1 sequence (looked up): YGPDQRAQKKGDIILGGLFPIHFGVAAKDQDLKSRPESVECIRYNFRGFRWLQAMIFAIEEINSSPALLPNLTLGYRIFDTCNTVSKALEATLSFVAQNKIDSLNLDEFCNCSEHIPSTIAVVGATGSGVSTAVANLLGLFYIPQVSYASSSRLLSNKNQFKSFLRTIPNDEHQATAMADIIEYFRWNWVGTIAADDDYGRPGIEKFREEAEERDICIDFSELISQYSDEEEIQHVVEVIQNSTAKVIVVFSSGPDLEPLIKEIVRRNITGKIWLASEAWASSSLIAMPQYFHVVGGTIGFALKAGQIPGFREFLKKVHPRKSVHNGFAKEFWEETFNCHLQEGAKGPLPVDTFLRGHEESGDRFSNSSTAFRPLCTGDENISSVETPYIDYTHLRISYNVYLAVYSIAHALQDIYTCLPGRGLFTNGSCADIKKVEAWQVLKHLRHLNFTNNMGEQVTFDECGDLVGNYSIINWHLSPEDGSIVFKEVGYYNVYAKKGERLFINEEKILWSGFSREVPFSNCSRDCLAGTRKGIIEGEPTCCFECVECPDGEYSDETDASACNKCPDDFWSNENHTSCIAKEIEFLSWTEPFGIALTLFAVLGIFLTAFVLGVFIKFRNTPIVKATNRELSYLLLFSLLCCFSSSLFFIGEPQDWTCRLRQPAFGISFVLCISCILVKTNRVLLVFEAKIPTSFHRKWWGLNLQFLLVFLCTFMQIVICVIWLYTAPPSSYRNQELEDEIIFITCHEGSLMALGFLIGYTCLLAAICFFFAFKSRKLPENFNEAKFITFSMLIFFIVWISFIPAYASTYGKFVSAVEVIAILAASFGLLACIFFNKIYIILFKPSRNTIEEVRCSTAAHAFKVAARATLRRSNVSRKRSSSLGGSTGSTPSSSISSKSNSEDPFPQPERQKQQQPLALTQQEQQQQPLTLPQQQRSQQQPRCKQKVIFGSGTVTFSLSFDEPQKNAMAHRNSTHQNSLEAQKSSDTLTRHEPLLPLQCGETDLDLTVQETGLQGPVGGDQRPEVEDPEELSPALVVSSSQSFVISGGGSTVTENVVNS
test.details: cell-based or functional assay
Ends that are not written are not given here.
readout.name: EC50 (µM), CaSR in vitro assay (IP1 production)

State, in one line, measured EC50 (µM), CaSR in vitro assay (IP1 production) of XXXXXXX (N-terminal acetyl; C-terminal amide; all residues D-amino acids; oxidized glutathione (GS) attached to the side chain of D-Cys 1) [Ac-c(GS)rrrrrr-NH2]
7.8 µM

Fill in reported EC50 (µM), CaSR in vitro assay (IP1 production) for this entry: XXXXXXX (N-terminal acetyl; C-terminal amide; all residues D-amino acids; L-Cys carrying a 5 kDa polyethylene glycol (PEG5-C) attached to the side chain of D-Cys 1) [Ac-c(PEG5-C)rrrrrr-NH2]
0.58 µM

Provide EC50 (µM), CaSR in vitro assay (IP1 production) value for the following binder: XXXXXXX (N-terminal acetyl; C-terminal amide; residue 1 is D-homocysteine (dHcy); residues 2-7 D-Arg) [Ac-dHcy rrrrrr-NH2]
2 µM

Recall and state the measured EC50 (µM), CaSR in vitro assay (IP1 production) for XXXXXXX (no N-terminal cap; C-terminal amide; all seven residues D-amino acids; D-Cys 1 linked to an L-Cys residue) [c(C)arrrar-NH2] .
3.1 µM

Input XXXXXXXX (not fully specified; N-terminal acetylated beta-alanine; C-terminal amide; c, a, r residues D-amino acids; D-Cys linked to an L-Cys residue) [Ac-bAla-c(C)arrrar-NH2] , output reported EC50 (µM), CaSR in vitro assay (IP1 production).
2.6 µM

Specify measured EC50 (µM), CaSR in vitro assay (IP1 production) for XXXXXXX (N-terminal acetyl; C-terminal amide; all residues D-amino acids; acetyl attached to the side chain of D-Cys 1) [Ac-c(acetyl)rrrrrr-NH2] .
4.1 µM

Assign EC50 (µM), CaSR in vitro assay (IP1 production) to the following record: XAXXXAX (N-terminal acetyl; C-terminal amide; D-amino acids except L-Ala 2 and L-Ala 6) [Ac-cArrrAr-NH2]
> 1000 µM

Give the reported value of EC50 (µM), CaSR in vitro assay (IP1 production) for this record: XXXXXXX (not fully specified; N-terminal acetyl; C-terminal amide; all seven residues D-amino acids; N-acetyl-L-Cys attached to the side chain of D-Cys 1) [Ac-c(Ac-C)arrrar-NH2]
21 µM

Supply measured EC50 (µM), CaSR in vitro assay (IP1 production) of Ac-CARRRAR-NH2 [Ac-CARRRAR-NH2] in your reply.
58 µM

Fill in reported EC50 (µM), CaSR in vitro assay (IP1 production) for this entry: XXXXXXX (N-terminal acetyl; C-terminal amide; all residues D-amino acids; mercaptopropionic acid (Mpa) attached to the side chain of D-Cys 1) [Ac-c(Mpa)arrrar-NH2]
21 µM

Recall and state the measured EC50 (µM), CaSR in vitro assay (IP1 production) for XXXXXXX (N-terminal acetyl; free C-terminal acid (-OH); all residues D-amino acids) [Ac-carrrar-OH] .
31 µM

Give the reported EC50 (µM), CaSR in vitro assay (IP1 production) for this binder. (SEQ ID NO: 46) (SEQ ID NO: 47) conjugate, structure given only as drawing CHEM-US-00002 (cysteine pairing not given here; also: further groups not given here) peptide 1: CPDYHDAGI peptide 2: CYGRKKRRQRRR
21 µM

State its EC50 (µM), CaSR in vitro assay (IP1 production): XXXXXXX (no N-terminal cap; C-terminal amide; all residues D-amino acids) [crrrrrr-NH2]
1.1 µM

Identify measured EC50 (µM), CaSR in vitro assay (IP1 production) associated with (SEQ ID NO: 45) (SEQ ID NO: 47) conjugate, structure given only as drawing CHEM-US-00001 (cysteine pairing not given here; also: further groups not given here) peptide 1: CHDAPIGYD peptide 2: CYGRKKRRQRRR
21 µM

Item XXXXXXX (N-terminal acetyl; C-terminal amide; all residues D-amino acids; benzoyl attached to the side chain of D-Cys 1) [Ac-c(Benzoyl)rrrrrr-NH2] : provide EC50 (µM), CaSR in vitro assay (IP1 production)
3.6 µM

Reference source for all entries: patent US20130150297A1
